Measured Barnyardgrass plant response rating, listed per entry.
# Test system: barnyardgrass (Echinochloa crus-galli)
# assay_procedure: Test C flooded paddy test
# Format: in vivo
# condition_description: Flooded Paddy; Rate 500 g/ha; scale 0 to 100, 0 no effect, 100 complete control
quantity_name: Barnyardgrass plant response rating

- molecule: "CC(C)(C)c1ccn(C2CCN(c3cc(Cl)cc(Cl)c3)C2=O)n1 (stereo not drawn)"
  result_number: 100
- molecule: "CCC(CC)c1ccn(C2CCN(c3ccc(Cl)c(OC)c3)C2=O)n1 (stereo not drawn)"
  result_number: 100
- molecule: "CCCC(C)c1ccn(C2CCN(c3cccc(OC)c3)C2=O)n1 (stereo not drawn)"
  result_number: 60
- molecule: "CCC(CC)c1ccn(C2OCN(c3cccc(OC(F)F)c3)C2=O)n1 (stereo not drawn)"
  result_number: 100
- molecule: "CC(C)Oc1ccn(C2CCN(c3cccc(C(F)(F)F)c3)C2=O)n1 (stereo not drawn)"
  result_number: 30
- molecule: "CCC(C)c1ccn(C2CCN(c3ccc(Cl)c(OC)c3)C2=O)n1 (stereo not drawn)"
  result_number: 80
- molecule: "O=C1C(n2ccc(C3CCC3)n2)SCN1c1cccc(OC(F)(F)F)c1 (stereo not drawn)"
  result_number: 100
- molecule: "CCCCC(C)c1ccn(C2OCN(c3cccc(C(F)(F)F)c3)C2=O)n1 (stereo not drawn)"
  result_number: 50
- molecule: "CC(C)(C)c1ccn(C2SCN(c3cccc(OC(F)F)c3)C2=O)n1 (stereo not drawn)"
  result_number: 100
- molecule: "O=C1C(n2ccc(C3CC3)n2)OCN1c1cccc(C(F)(F)F)c1 (stereo not drawn)"
  result_number: 70
- molecule: "Cc1cc(N2CCC(n3ccc(C(C)(C)C)n3)C2=O)ccc1Cl (stereo not drawn)"
  result_number: 100
- molecule: "CCC(CC)c1ccn(C2CCN(c3ccc(C)c(OC)c3)C2=O)n1 (stereo not drawn)"
  result_number: 90
- molecule: "CCC(CC)c1ccn(C2CCN(c3ccc(F)c(C(F)(F)F)c3)C2=O)n1 (stereo not drawn)"
  result_number: 100
- molecule: "CC(C)(C)c1ccn(C2CCN(c3cc(C(F)(F)F)cc(C(F)(F)F)c3)C2=O)n1 (stereo not drawn)"
  result_number: 20
- molecule: "CC(C)c1ccn(C2OCN(c3cccc(OC(F)(F)F)c3)C2=O)n1 (stereo not drawn)"
  result_number: 100
- molecule: "CSc1cccc(N2CCC(n3ccc(C(C)(C)C)n3)C2=O)c1 (stereo not drawn)"
  result_number: 100
- molecule: "CCCCC(CCCC)c1ccn(C2SCN(c3cccc(OC(F)(F)F)c3)C2=O)n1 (stereo not drawn)"
  result_number: 0
- molecule: "COc1cc(N2CCC(n3ccc(C(C)(C)C)n3)C2=O)ccc1Cl (stereo not drawn)"
  result_number: 90
- molecule: "CCC(C)c1ccn(C2SCN(c3cccc(C(F)(F)F)c3)C2=O)n1 (stereo not drawn)"
  result_number: 100
- molecule: "CCCC(C)c1ccn(C2OCN(c3cccc(OC(F)(F)F)c3)C2=O)n1 (stereo not drawn)"
  result_number: 100
- molecule: "COC(=O)c1cccc(N2CCC(n3ccc(C(C)(C)C)n3)C2=O)c1 (stereo not drawn)"
  result_number: 100
- molecule: "CCC(C)c1ccn(C2SCN(c3cccc(OC(F)(F)F)c3)C2=O)n1 (stereo not drawn)"
  result_number: 100
- molecule: "CCOc1cccc(N2CCC(n3ccc(C(C)C)n3)C2=O)c1 (stereo not drawn)"
  result_number: 100
- molecule: "CCCCC(CCCC)c1ccn(C2OCN(c3cccc(C(F)(F)F)c3)C2=O)n1 (stereo not drawn)"
  result_number: 0
- molecule: "CCC(CC)c1ccn(C2SCN(c3cccc(C(F)(F)F)c3)C2=O)n1 (stereo not drawn) [Compound 25]"
  result_number: 100
- molecule: "Cc1ccc(N2CCC(n3ccc(C(C)(C)C)n3)C2=O)cc1I (stereo not drawn)"
  result_number: 100
- molecule: "CCC(C)c1ccn(C2OCN(c3cccc(OC(F)(F)F)c3)C2=O)n1 (stereo not drawn)"
  result_number: 100
